- ASSAYED_TARGET: dopamine D-2 receptor (D2 Spiper) (Rattus norvegicus)
- Construct: homogenized limbic brain tissue is incubated with; from tissue; host or cells: limbic brain tissue homogenate
- ASSAY_INFO: 3H-spiroperidol (Spiper.) binding in homogenized limbic brain tissue, affinity for the dopamine D-2 receptor
Could you please report measured IC50 for the items listed next?
Numbers only, in nM.

For orientation, consider the following solved cases.
SMILES_INPUT	ASSAYED_TARGET	IC50 [nM]
O=C1Cc2c(OCCNCc3ccc(F)cc3)ccc(Cl)c2N1	dopamine D-2 receptor (D2 Spiper) (Rattus norvegicus)	176
O=C1Cc2c(OCCNCc3ccc(Cl)cc3)ccc(Cl)c2N1	dopamine D-2 receptor (D2 Spiper) (Rattus norvegicus)	51.9
CCCCNCCOc1ccc(Cl)c2c1CC(=O)N2	dopamine D-2 receptor (D2 Spiper) (Rattus norvegicus)	144
CN(CCOc1cccc2c1CC(=O)N2)Cc1ccccc1	dopamine D-2 receptor (D2 Spiper) (Rattus norvegicus)	645
Cc1ccc(CNCCOc2ccc(Cl)c3c2CC(=O)N3)cc1	dopamine D-2 receptor (D2 Spiper) (Rattus norvegicus)	37.5
CN(CCOc1ccc(Cl)c2c1CC(=O)N2)Cc1ccccc1	dopamine D-2 receptor (D2 Spiper) (Rattus norvegicus)	231
O=C1Cc2c(OCCNCC3CCCCC3)ccc(F)c2N1	dopamine D-2 receptor (D2 Spiper) (Rattus norvegicus)	99.4
O=C1Cc2c(OCCNCc3ccccc3)ccc(F)c2N1	dopamine D-2 receptor (D2 Spiper) (Rattus norvegicus)	68.7

Report IC50 for each item below.
1. O=C1Cc2c(OCCN3CCc4ccccc4C3)ccc(Cl)c2N1
2. O=C1Cc2c(OCCNCc3ccccc3)ccc(Cl)c2N1

RESULT:
[81.4, 36]

###

Could you please report measured log10 IC50 for the items listed next?
- ASSAYED_TARGET: dopamine D-2 receptor (D2 Spiper) (Rattus norvegicus, UniProt P61169)
- Construct: homogenized limbic brain tissue is incubated with; from tissue; host or cells: limbic brain tissue homogenate
- Sequence (P61169 whole entry): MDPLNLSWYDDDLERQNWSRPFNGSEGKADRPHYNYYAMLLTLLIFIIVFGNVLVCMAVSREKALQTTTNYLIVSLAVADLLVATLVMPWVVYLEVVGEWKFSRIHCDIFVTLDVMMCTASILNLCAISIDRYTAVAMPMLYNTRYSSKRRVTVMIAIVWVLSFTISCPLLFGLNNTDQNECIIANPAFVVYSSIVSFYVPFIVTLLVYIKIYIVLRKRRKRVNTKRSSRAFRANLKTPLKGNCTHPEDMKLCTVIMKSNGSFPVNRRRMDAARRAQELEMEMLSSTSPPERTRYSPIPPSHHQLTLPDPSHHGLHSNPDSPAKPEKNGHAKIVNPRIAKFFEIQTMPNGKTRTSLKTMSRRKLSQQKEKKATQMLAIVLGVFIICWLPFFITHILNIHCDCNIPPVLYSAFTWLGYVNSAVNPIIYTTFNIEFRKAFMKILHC
- ASSAY_INFO: 3H-spiroperidol (Spiper.) binding in homogenized limbic brain tissue, affinity for the dopamine D-2 receptor
Please be aware that the numbers have been log10-transformed from IC50 in nM.

For orientation, consider the following solved cases.
SMILES_INPUT	log10 IC50
O=C1Cc2c(cccc2OCCNCCCCc2ccccc2)N1	1.40
O=C1Cc2c(cccc2OCCNCc2ccccc2)N1	2.16
CN(CCCC(=O)c1ccc(F)cc1)CCOc1cccc2c1CC(=O)N2	2.54

Report log10 IC50 for each item below.
1. NCCOc1cccc2c1CC(=O)N2
2. CNCCOc1cccc2c1CC(=O)N2

RESULT:
1. 3.53
2. 2.96
